# procedure.summary: suppressors of polyglutamine aggregation in yeast, 75Q-TubH (AID 1616)
# test.context: S. cerevisiae 75Q-TubH polyglutamine aggregation suppression; stronger effect = higher value
Peptide text beside a SMILES is read from it.
readout.name: aggregation suppression score
Answer as a number with no unit attached.

The reported value for CC(C(=O)O)c1ccc(-c2ccccc2)c(F)c1 (stereo not drawn) in terms of aggregation suppression score is 0.00404

The reported value for CC(=O)NC(Cc1ccccc1)C(=O)O (stereo not drawn) in terms of aggregation suppression score is 1.23

The reported value for CC(=O)N1CCN(c2ccc(OCC3CO[C@](Cn4ccnc4)(c4ccc(Cl)cc4Cl)O3)cc2)CC1 (stereo partly drawn) in terms of aggregation suppression score is 0.126

The reported value for COC(=O)[C@H]1[C@H]2C[C@H]3c4[nH]c5cc(OC)ccc5c4CCN3C[C@H]2C[C@@H](OC(=O)c2cc(OC)c(OC)c(OC)c2)[C@@H]1OC in terms of aggregation suppression score is 0.976

The reported value for CN1CCc2c(c3ccccc3n2Cc2ccccc2)C1 in terms of aggregation suppression score is 1.16

The reported value for N[C@H](Cc1ccccc1)C(=O)O in terms of aggregation suppression score is 1.21

The reported value for C=C1c2c(Cl)ccc(O)c2C(O)=C2C(=O)[C@]3(O)C(O)=C(C(N)=O)C(=O)[C@@H](N(C)C)[C@@H]3[C@@H](O)[C@H]12 in terms of aggregation suppression score is 0.198

The reported value for O=c1c(O)c(-c2ccc(O)cc2O)oc2cc(O)cc(O)c12 in terms of aggregation suppression score is 0.872

The reported value for Cn1c(=O)[nH]c2ncn(C)c2c1=O in terms of aggregation suppression score is 1.3

The reported value for CC(=O)N[C@@H](CC(=O)O)C(=O)N[C@@H](CCC(=O)O)C(=O)O (Ac-Asp-Glu-OH) in terms of aggregation suppression score is 1.06

The reported value for C[C@@H]1O[C@@H](O[C@H]2[C@H](Oc3cc(O)c4c(c3)O[C@H](c3ccc(O)cc3)CC4=O)O[C@H](CO)[C@@H](O)[C@@H]2O)[C@H](O)[C@H](O)[C@H]1O in terms of aggregation suppression score is 1.02

The reported value for CN1C(=O)CC[C@H]1c1cccnc1 in terms of aggregation suppression score is 1.36

The reported value for NCC(O)CC(=O)O (stereo not drawn) in terms of aggregation suppression score is 1.63

The reported value for CC1CCCC(C)N1NC(=O)c1ccc(Cl)c(S(N)(=O)=O)c1 (stereo not drawn) in terms of aggregation suppression score is 1.2

The reported value for NC(=O)c1ccc[n+]([C@@H]2O[C@H](COP(=O)([O-])OP(=O)(O)OC[C@H]3O[C@@H](n4cnc5c(N)ncnc54)[C@H](OP(=O)(O)O)[C@@H]3O)[C@@H](O)[C@H]2O)c1 in terms of aggregation suppression score is 0.975

The reported value for C=NC(C(=O)NC1C(=O)N2C1SC(C)(C)C2C(=O)O)c1ccccc1 (stereo not drawn) in terms of aggregation suppression score is 0.649

The reported value for CC[C@H]1OC(=O)[C@H](C)[C@@H](O[C@H]2C[C@@](C)(OC)[C@@H](O)[C@H](C)O2)[C@H](C)[C@@H](O[C@@H]2O[C@H](C)C[C@H](N(C)C)[C@H]2O)[C@](C)(O)C[C@@H](C)/C(=N\OCOCCOC)[C@H](C)[C@@H](O)[C@]1(C)O in terms of aggregation suppression score is 0.306

The reported value for N[C@@H](Cc1c[nH]c2ccccc12)C(=O)O in terms of aggregation suppression score is 1.04

====

# procedure.summary: CellTiter-Glo luminescent readout of SW480 viability loss, NPC library primary (AID 1117343)
# test.context: CellTiter-Glo luminescence; at 20 µM (top of the series) unless noted
The source made the active and inactive calls.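 Rule for the calls: active = compounds that lower viability of the colon cancer cells in the luminescence readout, with no numeric limit stated; inactive = the rest.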
// allowed return values: y = active, n = inactive

Tell me the recorded outcome of this test for O=C(O)c1cc(-c2ccccc2)nc2ccccc12 .
n

Tell me the recorded outcome of this test for CN1CCN(CCCN2c3ccccc3Sc3ccc(S(=O)(=O)N(C)C)cc32)CC1 .
y

Tell me the recorded outcome of this test for O=C(NCC1CN(c2ccc(N3CCOCC3=O)cc2)C(=O)O1)c1ccc(Cl)s1 (stereo not given) .
n

Tell me the recorded outcome of this test for CN1CCN(C2=Nc3ccccc3Sc3ccc(Cl)cc32)CC1 .
y

Tell me the recorded outcome of this test for CN1CCC(=C2c3ccccc3CCc3cccnc32)CC1 .
n

Tell me the recorded outcome of this test for O=C(O)c1c(Cl)c(Cl)c(Cl)c(Cl)c1-c1c2cc(I)c(=O)c(I)c-2oc2c(I)c(O)c(I)cc12 .
y

Tell me the recorded outcome of this test for NC(=O)C1(N2CCCCC2)CCN(CCCN2c3ccccc3CCc3ccc(Cl)cc32)CC1 .
y

Tell me the recorded outcome of this test for CC1=C(C)C(=O)C(CCCCC#CCCCC#CCO)=C(C)C1=O .
y

Tell me the recorded outcome of this test for CC(C)(C)C(=O)OCOC(=O)[C@@H]1N2C(=O)[C@@H](NC(=O)[C@H](N)c3ccccc3)[C@H]2SC1(C)C .
n

Tell me the recorded outcome of this test for CCCCCCCCCCCCCCC[C@H](O)[C@@H](N)CO .
y

====

# procedure.summary: ovarian cancer cell viability with rucaparib, profiling panel, oncology-focused library, rucaparib conditional (AID 1508598)
# test.context: patient-derived ovarian cancer cells, CellTiter-Glo viability, 144 h; at 0.0195 µM; OCI-P5x cells; without rucaparib
Activity calls are given as the source filed them.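 How the source made its calls: active means normalized viability below 100% at a tested concentration; inactive means the rest.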
// allowed return values: y = active, n = inactive

Tell me the recorded outcome of this test for O=C(NOCC1CC1)c1ccc(F)c(F)c1Nc1ccc(I)cc1Cl .
n

Tell me the recorded outcome of this test for Nc1ncn([C@H]2C[C@H](O)[C@@H](CO)O2)c(=O)n1 .
y

Tell me the recorded outcome of this test for Cc1cc(O)c2c(c1)C(=O)c1cccc(O)c1C2=O .
n

Tell me the recorded outcome of this test for COc1cc(Nc2c(C#N)cnc3cc(OCCCN4CCN(C)CC4)c(OC)cc23)c(Cl)cc1Cl .
n

Tell me the recorded outcome of this test for Nc1cccc2c1CN(C1CCC(=O)NC1=O)C2=O (stereo unspecified) .
n

Tell me the recorded outcome of this test for COc1c(C)c2c(c(O)c1C/C=C(\C)CCC(=O)OCCN1CCOCC1)C(=O)OC2 .
n

====

Kindly state inhibition for each of the entries shown.
# procedure.summary: ICB984 medulloblastoma cell growth inhibition, synergistic combos for chromothripsis tumors, cisplatin or BGB combos (AID 1671451);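 note: cells exposed for 96 hours before readout; 0% = vehicle DMSO and 100% = killing by high DMSO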
# test.context: ICB984 medulloblastoma cells, drug combinations, BGB IC20 combo, at 0.005 µM, stronger effect = higher value
# unit: % | format: bare number

The reported value for CN(N=O)C(=O)NC1C(O)OC(CO)C(O)C1O (centres undefined) in terms of inhibition is -31.3

The reported value for Nc1ccc2cc3ccc(N)cc3nc2c1 in terms of inhibition is -22.1

The reported value for CCn1nc(C(=O)O)c(=O)c2cc3c(cc21)OCO3 in terms of inhibition is -15.8

The reported value for Cc1ccc2nc(N)[nH]c(=O)c2c1Sc1ccncc1 in terms of inhibition is -27.9

The reported value for C[C@@H](CN1CC(=O)NC(=O)C1)N1CC(=O)NC(=O)C1 in terms of inhibition is -2.91

The reported value for O=C(CCCCCCC(=O)Nc1ccccc1)NO in terms of inhibition is -9.97

The reported value for CN1CCN(c2c(F)cc3c(=O)c(C(=O)O)cn4c3c2OCN4C)CC1 in terms of inhibition is 9.65

The reported value for CN1C[C@@H]2C[C@H]1CN2c1cc2c(cc1F)c(=O)c(C(=O)O)cn2C1CC1 in terms of inhibition is -24.2

The reported value for CNC1CCCN(c2c(F)cc3c(=O)c(C(=O)O)cn(C4CC4)c3c2OC)C1 (centres undefined) in terms of inhibition is -26.8

The reported value for CCOC(=O)Nc1ccc(NCc2ccc(F)cc2)nc1N in terms of inhibition is -2.86

The reported value for COc1c2ccoc2cc2oc(=O)ccc12 in terms of inhibition is -7.99

The reported value for O=c1[nH]c(=O)n([C@H]2C[C@H](O)[C@@H](CO)O2)cc1Br in terms of inhibition is -12.2

The reported value for O=c1c(O)c(-c2ccc(O)c(O)c2)oc2cc(O)ccc12 in terms of inhibition is -15.9

The reported value for CN1CCN(c2c(F)cc3c(=O)c(C(=O)O)cn(CCF)c3c2F)CC1 in terms of inhibition is 3.45

====

# procedure.summary: inhibitors of polyQ protein aggregation (AID 1604)
# test.context: polyglutamine-induced protein aggregation inhibition assay; stronger effect = higher value; concentration not given here
readout.name: inhibition of aggregation (%)
# unit: % | format: bare number

The reported value for CCN(CC)Cc1ccc(Nc2ccnc3cc(Cl)ccc23)cc1O in terms of inhibition of aggregation is 65.5

The reported value for CCn1cc(C(=O)O)c(=O)c2ccc(C)nc21 in terms of inhibition of aggregation is 54.5

The reported value for CCCCCCCCCCCCCCCC(=O)OC/C=C(C)/C=C/C=C(C)/C=C/C1=C(C)CCCC1(C)C in terms of inhibition of aggregation is 46

The reported value for COc1ccc2c3c1O[C@H]1C[C@@H](O)C=C[C@@]31CCN(C)C2 in terms of inhibition of aggregation is 91.6

The reported value for CN1CC(=O)N=C1N in terms of inhibition of aggregation is 97.4

The reported value for Cc1cc(/C=C/c2ccc3cc(N(C)C)ccc3[n+]2C)c(C)n1-c1ccccc1 in terms of inhibition of aggregation is -12.8

The reported value for COc1ccc([C@@H]2CC(=O)c3c(O)cc(O)cc3O2)cc1O in terms of inhibition of aggregation is 17

The reported value for CSCCC(NC=O)C(=O)NC(CC(C)C)C(=O)NC(Cc1ccccc1)C(=O)O (stereo not drawn) in terms of inhibition of aggregation is 53.9

The reported value for O=c1cc(-c2ccccc2)oc2c(O)c(O)ccc12 in terms of inhibition of aggregation is 81.7

The reported value for CC(C)Cn1c(=O)n(C)c(=O)c2[nH]cnc21 in terms of inhibition of aggregation is 80.3

The reported value for OCc1ccccc1O[C@@H]1O[C@H](CO)[C@@H](O)[C@H](O)[C@H]1O in terms of inhibition of aggregation is 25.2

The reported value for CN(C)CCOC(c1ccccc1)c1ccccc1 (tested in a mixture with another compound) in terms of inhibition of aggregation is 69.8

The reported value for COc1c(C)c2c(c(O)c1C/C=C(\C)CCC(=O)O)C(=O)OC2 in terms of inhibition of aggregation is 35

The reported value for CN1CCN(C2=Nc3cc(Cl)ccc3Nc3ccccc32)CC1 in terms of inhibition of aggregation is 65.4

The reported value for O=c1cc(-c2ccc(O)cc2)oc2cc(O)cc(O)c12 in terms of inhibition of aggregation is -7.84

The reported value for O=C(O)c1cccnc1C(=O)O in terms of inhibition of aggregation is 58.6

The reported value for CC1(C)S[C@@H]2[C@H](NC(=O)Cc3ccccc3)C(=O)N2[C@H]1C(=O)O in terms of inhibition of aggregation is 16.8

The reported value for CC1CCCC(C)N1NC(=O)c1ccc(Cl)c(S(N)(=O)=O)c1 (stereo not drawn) in terms of inhibition of aggregation is 25.5

The reported value for CN1C2CCC1CC(OC(=O)C(CO)c1ccccc1)C2 (stereo not drawn) in terms of inhibition of aggregation is 83.1

The reported value for COC(=O)C1=C(C)NC(C)=C(C(=O)OCCN(C)Cc2ccccc2)C1c1cccc([N+](=O)[O-])c1 (stereo not drawn) in terms of inhibition of aggregation is 11.1

The reported value for O=C(O)CN(CCN(CC(=O)O)CC(=O)O)CC(=O)O in terms of inhibition of aggregation is 72.4

The reported value for O=c1c(-c2ccc(O)cc2)coc2cc(O)ccc12 in terms of inhibition of aggregation is 27.9

The reported value for CNCCC=C1c2ccccc2CCc2ccccc21 in terms of inhibition of aggregation is 72.7
